Data origin: paper PMC5341752

Test system: A2780 CRISPR p53 KO cells
experiment-summary: MTT assay in A2780 clone with p53 knocked out by CRISPR/Cas9
Format: cell-based, human
stated-conditions: mean ± SEM
pIC50: −log10 of the molar value.
quantity-kind: pIC50

INSERT INTO assay_data (molecule, target_or_test_system, quantity_kind, readout_number) VALUES
  ('S=C([S-])N(Cc1ccccc1)Cc1ccccc1.[Au+3].[Cl-].[Cl-].c1ccc(-c2ccccn2)nc1 [Compound 3, [Au(BPY)(DBTC)]Cl2]', 'A2780 CRISPR p53 KO cells', 'pIC50', 5.95),
  ('Cc1ccc2[n+](c1)[Au-]1([S]C(N(C)C)=[S+]1)[n+]1cc(C)ccc1-2.[Cl-].[Cl-] [Compound 4, [Au(5,5′-Me2BPY)(DMTC)]Cl2]', 'A2780 CRISPR p53 KO cells', 'pIC50', 7.08);
